Assay Info: Plasma protein binding by equilibrium dialysis
Type: in vitro ADME
Experimental Parameters: both, pH 7.4, pooled human plasma, 4 hours at 37° C., read-out: PPB (%)
Assay Metric: fraction unbound at 4 h, 10 μM

Give its fraction unbound at 4 h, 10 μM value. Item: CC[C@@H](NC(=O)N1C(=O)[C@H](Cc2ccnc(N)c2)[C@H]1C(=O)N(C)c1nccn1C)c1ccccc1Cl
0.05 to 0.09

====

Assay Info: Metabolic stability in dog hepatocytes
Assay type: in vitro ADME
Experimental Parameters: pooled cryopreserved hepatocytes; beagle dog hepatocytes, 2 μM compound; read-out: Dog Hepatocyte Stability (t1/2)
Assay Metric: half-life at 2 μM

I have this compound here, CC[C@@H](NC(=O)N1C(=O)[C@H](Cc2cc(C)nc(N)c2)[C@H]1C(=O)N(C)c1ccnn1C)C1CCCCC1 , and I need its recorded half-life at 2 μM.
1.02 to 2 h

Could you share which half-life at 2 μM value was measured for CC[C@@H](NC(=O)N1C(=O)[C@H](Cc2ccnc(N)c2)[C@H]1C(=O)N(C)c1ccn(C)n1)c1ccccc1 ?
> 4 h

Reported half-life at 2 μM, compound CC[C@@H](NC(=O)N1C(=O)[C@H](Cc2ccnc(N)c2)[C@H]1C(=O)N(C)c1ccnn1C)C1CCCCC1 : ____
< 1 h

Query: half-life at 2 μM; subject: CC(C)[C@@H](NC(=O)N1C(=O)[C@H](Cc2ccnc(N)c2)[C@H]1C(=O)N(C)c1ccn(C)n1)C1CCCCC1
< 1 h

Quick check: half-life at 2 μM of CC[C@@H](NC(=O)N1C(=O)[C@H](Cc2cc(C)nc(NC)c2)[C@H]1C(=O)N(C)c1nccn1C)c1cccc(Cl)c1 ?
1.02 to 2 h

Look up half-life at 2 μM for this compound: CC[C@@H](NC(=O)N1C(=O)[C@H](Cc2ccnc(N)c2)[C@H]1C(=O)N(C)c1nccn1C)C1CCCCC1
1.02 to 2 h

Requested read-out: half-life at 2 μM. Entry: CC[C@@H](NC(=O)N1C(=O)[C@H](Cc2ccnc(N)c2)[C@H]1C(=O)N(C)c1cn(C)cn1)c1ccccc1
2.02 to 4 h

Given CC[C@@H](NC(=O)N1C(=O)[C@H](Cc2cc(C)nc(N)c2)[C@H]1C(=O)N(C)c1nccn1C)c1cccc(Cl)c1 , state its recorded half-life at 2 μM.
2.02 to 4 h

Bench note: what half-life at 2 μM did CC[C@@H](NC(=O)N1C(=O)[C@H](Cc2ccnc(N)c2)[C@H]1C(=O)N(C)c1cscn1)c1cccc(Cl)c1 show?
1.02 to 2 h

What measured half-life at 2 μM goes with CC[C@@H](NC(=O)N1C(=O)[C@H](Cc2cc(C)nc(N)c2)[C@H]1C(=O)N(C)c1nccn1C)c1ccccc1 ?
> 4 h

Bench note: what half-life at 2 μM did CC[C@@H](NC(=O)N1C(=O)[C@H](Cc2ccnc(N)c2)[C@H]1C(=O)N(C)c1ccn(C)n1)c1cccc(Cl)c1 show?
1.02 to 2 h

Any idea what its half-life at 2 μM is? The compound is CC[C@@H](NC(=O)N1C(=O)[C@H](Cc2ccnc(N)c2)[C@H]1C(=O)N(C)c1cnn(C)c1)c1ccccc1
> 4 h

Item under review: CC[C@@H](NC(=O)N1C(=O)[C@H](Cc2ccnc(N)c2)[C@H]1C(=O)N(C)c1cnn(C)c1)c1ccc(C)nc1 . Reported half-life at 2 μM?
2.02 to 4 h

Report half-life at 2 μM for CC[C@@H](NC(=O)N1C(=O)[C@H](Cc2ccnc(N)c2)[C@H]1C(=O)N(C)c1nccn1C)c1cccc(Cl)c1 please.
1.02 to 2 h

Report half-life at 2 μM for CC[C@@H](NC(=O)N1C(=O)[C@H](Cc2ccnc(NC)c2)[C@H]1C(=O)N(C)c1nccn1C)c1cccc(Cl)c1 please.
1.02 to 2 h

Please look up its half-life at 2 μM: CC[C@@H](NC(=O)N1C(=O)[C@H](Cc2ccnc(N)c2)[C@H]1C(=O)N(C)c1ccnn1C)c1ccccc1
2.02 to 4 h

Can you look up the measured half-life at 2 μM of CC[C@@H](NC(=O)N1C(=O)[C@H](Cc2cc(C)nc(N)c2)[C@H]1C(=O)N(C)c1ccn(C)n1)c1cccc(C)c1 for me?
2.02 to 4 h

Which half-life at 2 μM is reported for this compound? CC[C@@H](NC(=O)N1C(=O)[C@H](Cc2cc(C)nc(N)c2)[C@H]1C(=O)N(C)c1cnn(C)c1)c1cccc(Cl)c1
> 4 h

I have this compound here, CC[C@@H](NC(=O)N1C(=O)[C@H](Cc2ccnc(N)c2)[C@H]1C(=O)N(C)c1nccn1C)c1ccccc1Cl , and I need its recorded half-life at 2 μM.
2.02 to 4 h

Recorded half-life at 2 μM for CC[C@@H](NC(=O)N1C(=O)[C@H](Cc2ccnc(N)c2)[C@H]1C(=O)N(C)c1cccs1)c1ccccc1 , please?
< 1 h

If you can, please state the reported half-life at 2 μM value of CC[C@@H](NC(=O)N1C(=O)[C@H](Cc2ccnc(N)c2)[C@H]1C(=O)N(C)c1nccn1C)c1ccc(C)nc1 .
2.02 to 4 h

Quick one: half-life at 2 μM of CC[C@@H](NC(=O)N1C(=O)[C@H](Cc2cc(C)nc(N)c2)[C@H]1C(=O)N(C)c1ccn(C)n1)c1cccc(Cl)c1 ?
> 4 h

Param item = CC[C@@H](NC(=O)N1C(=O)[C@H](Cc2cc(C)nc(N)c2)[C@H]1C(=O)N(C)c1nccn1C)c1cc(F)ccc1F ; retrieve measured half-life at 2 μM.
> 4 h

Bench note: what half-life at 2 μM did CC[C@@H](NC(=O)N1C(=O)[C@H](Cc2ccnc(N)c2)[C@H]1C(=O)N(C)c1ccnn1C)c1cccc(Cl)c1 show?
1.02 to 2 h

Query: half-life at 2 μM; subject: CC[C@@H](NC(=O)N1C(=O)[C@H](Cc2cc(C)nc(N)c2)[C@H]1C(=O)N(C)c1ccn(C)n1)c1ccccc1
> 4 h

I'd like to know its half-life at 2 μM. The compound in question is C[C@@H](NC(=O)N1C(=O)[C@H](Cc2ccnc(N)c2)[C@H]1C(=O)N(C)c1ccn(C)n1)C1CCCCC1
1.02 to 2 h
